- protocolNotes: Therapeutic index, ratio of IC50 for rat IEC-6 cells to IC50 for human HT-29 cells
- Type: cell-based
- assaySetup: IEC-6 cells (normal) versus HT-29 cells (cancer), read-out: Ratio IC50
observationType: selectivity ratio
Give a plain numeric answer without units written out.

O=c1[nH]cc(F)c(=O)[nH]1 [FLUOROURACIL] : 0.61
O=C(OCC1c2ccccc2-c2ccccc21)N1CC(n2cnc3c(Cl)ncnc32)OCc2ccccc21 (racemic) : 2.99

Next compound, please.
selectivity ratio reported for this compound COC(CN(c1ccccc1CO)S(=O)(=O)c1ccccc1[N+](=O)[O-])n1cnc2ncnc(Cl)c21 (racemic) : 3.69
